- test: Droxidopa solubility at room temperature at different pH
- Assay type: physicochemical
- cond: solution of pH 5.5 (composition not stated), pH 5.5, aqueous buffer
assayMetric: solubility
Reply with a number, then the unit it belongs to.

Field request: solubility | item: `N[C@H](C(=O)O)[C@H](O)c1ccc(O)c(O)c1`
2300 µg/mL

###

- test: Droxidopa solubility at room temperature at different pH
- Type: physicochemical
- cond: solution of pH 4.5 (composition not stated), pH 4.5, aqueous buffer
assayMetric: solubility (µg/mL)
Write the value in µg/mL as a bare number.

Return reported solubility; argument: N[C@H](C(=O)O)[C@H](O)c1ccc(O)c(O)c1 [droxidopa]
2350

All values here come from patent US20250108026A1.
